Assignment: determine reported cell viability for the given molecules.
Test system: KG-1
Assay: cell viability (% survival relative to DMSO control, bortezomib = 0%); higher = less cytotoxic
Settings: 10 nM; 72 h

Please state recorded cell viability (tested on KG-1) of `Nc1ccccc1C(=O)C[C@H](N)C(=O)O`
89.4%

# value lookup — system KG-1, readout cell viability, item `CCCCCCCCCCC[C@@H](C[C@@H]1OC(=O)[C@H]1CCCCCC)OC(=O)[C@H](CC(C)C)NC=O`
99.6%

Recall the recorded cell viability for `CC(C)c1cc2c(c(O)c1O)[C@@]1(C(=O)O)CCCC(C)(C)[C@@H]1CC2` with KG-1 and state it.
96%

For the record `O[C@H]1[C@H]2[C@H](O)CCCN2C[C@H]1O` , what value of cell viability is listed for KG-1?
107%
